Tested on: Wolbachia pipientis
MEASUREMENT NOTES: Anti-Wolbachia Cell-Based Screen
Format: functional
Parameters: scale not given: in the data most compounds retested in dose-response had high values
CONDITION: 5 µM
Screen size: about 48,000 compounds; about 13,000 (27%) showed an effect of 50% or more. This is one part of the list.
PROPERTY LABEL: Percent Effect (%)
Form entry: value (%) — number only.

Worked cases, answers included:
[[record]]
compound = "CN(C)S(=O)(=O)N1C[C@H](Oc2cccnc2)[C@H]2OCCC[C@H]21.O=C(O)C(F)(F)F"
property_label = "Percent Effect"
unit_descriptor = "%"
endpoint_value = 21.05

[[record]]
compound = "O=C(c1ccc(Cn2cccc2)cc1)N1CCN(CCO)CC1"
property_label = "Percent Effect"
unit_descriptor = "%"
endpoint_value = 94.5

[[record]]
compound = "CC(O)CN1CCN(C(=O)c2ccc(Cn3cccc3)cc2)CC1 (stereo unspecified)"
property_label = "Percent Effect"
unit_descriptor = "%"
endpoint_value = 3.366

[[record]]
compound = "O=C(c1cscn1)N1C[C@@H](Oc2cccnc2)[C@H]2OCCC[C@H]21"
property_label = "Percent Effect"
unit_descriptor = "%"
endpoint_value = 101.6

[[record]]
compound = "O=C(CC1CCCC1)N1C[C@H](Oc2cccnc2)[C@H]2OCCC[C@H]21.O=C(O)C(F)(F)F"
property_label = "Percent Effect"
unit_descriptor = "%"
endpoint_value = 105.6


Percent Effect in this record for CCCN1CCN(C(=O)c2ccc(Cn3cc(Br)cn3)cc2)CC1 : -5.49

---

Tested on: Wolbachia pipientis
MEASUREMENT NOTES: Anti-Wolbachia Cell-Based Screen
Format: functional
Parameters: scale not given: in the data most compounds retested in dose-response had high values
CONDITION: 5 µM
The campaign covered roughly 48,000 compounds. About 13,000 (27%) showed an effect of 50% or more. The list shows a part of the results.
// values below are reported Percent Effect
The reply should contain only the number, in %.

Examples with answers:
[[record]]
molecule = "O=C(CO[C@@H]1CC[C@H]2[C@H]1OCCN2Cc1ccccn1)N1CCCC1.O=C(O)C(F)(F)F.O=C(O)C(F)(F)F"
endpoint_value = -4.207

[[record]]
molecule = "CCS(=O)(=O)N1CCC(c2cc3n(n2)[C@@H](C(F)(F)F)C[C@@H](C)N3)CC1"
endpoint_value = -9.512

[[record]]
molecule = "CCc1ccc(CN2CCC3(CCCN(C(=O)N(C)C)C3)C2)o1 (centres undefined)"
endpoint_value = 2.362

[[record]]
molecule = "Cn1cc(C[C@H]2[C@H](N3CCOCC3)CCN2C(=O)c2ccc[nH]2)cn1"
endpoint_value = -3.493

[[record]]
molecule = "Cc1cccc(CN2CCO[C@@H]3CC(COc4ccccn4)C[C@H]32)n1.O=C(O)C(F)(F)F.O=C(O)C(F)(F)F (some centres undefined)"
endpoint_value = 94.81

[[record]]
molecule = "CN(C)c1ncc(-c2cncn2CCc2ccc3c(c2)OCCO3)cn1.Cl"
endpoint_value = 96.16

[[record]]
molecule = "CN(C)CCN(Cc1ccc(Cl)cc1)C(=O)c1cc[nH]n1"
endpoint_value = 3.118

[[record]]
molecule = "CN(Cc1ccc(CCC(C)(C)O)cc1)Cc1cccnc1"
endpoint_value = -22.62

[[record]]
molecule = "Cc1nnc(N2C[C@H](OCc3ccncc3)[C@H]3OCCC[C@H]32)s1.O=C(O)C(F)(F)F.O=C(O)C(F)(F)F"
endpoint_value = -4.606

[[record]]
molecule = "Cn1cnnc1C1CCN(C(=O)Cc2ccc3c(c2)OCCO3)CC1"
endpoint_value = 14.42


Recorded result, CC(CO)NS(=O)(=O)c1cccc(C(C)C)c1 (centres undefined) , Percent Effect: -1.865

The molecule CN(Cc1cncnc1)[C@H]1CN(C(=O)c2ccc[nH]2)[C@@H]2CCCO[C@@H]21 showed Percent Effect equal to 103.1

Query Cc1cc(C(=O)N2CCC3(CC2)C(=O)N(C)CCN3CC2CC2)c(C)o1.O=C(O)C(F)(F)F yields Percent Effect of 105.3

The reported value for Cc1nnc2n1CC(CNc1cnc3ccccc3n1)CC2 (centres undefined) in terms of Percent Effect is 0.6716

The reported Percent Effect of the molecule CN(Cc1cc(C(C)(C)C)n[nH]1)Cc1c[nH]nc1-c1ccc(F)cc1 was -14.5

So for CN(Cc1ccco1)[C@@H]1CN(C(=O)c2ccnnc2)C[C@@H]2CCCO[C@@H]21.O=C(O)C(F)(F)F , the logged Percent Effect turned out to be 1.243

// Percent Effect value for CCNC(=O)NC(c1ccc(C)cc1)c1cccc(S(C)(=O)=O)c1 (centres undefined) : 96.65

---

Test system: Wolbachia pipientis
MEASUREMENT NOTES: Anti-Wolbachia Cell-Based Screen
Format: functional
Parameters: scale not given: in the data most compounds retested in dose-response had high values
CONDITION: 5 µM
About 13,000 (27%) of roughly 48,000 compounds showed an effect of 50% or more. The list shows a part of the results.
PROPERTY LABEL: Percent Effect (%)
Use % as the unit, but write only the number.

Guide cases for Percent Effect, answers given:
[[record]]
compound = "CN(C)c1ccc(CN2CCC(C(O)Cc3ccccc3)CC2)cn1 (configuration not stated)"
endpoint_value = 1.983

[[record]]
compound = "CC(C)(C)c1cc(CN2CCOC(CN)C2)n[nH]1 (configuration not stated)"
endpoint_value = -6.517

[[record]]
compound = "Cc1noc(C)c1CS(=O)(=O)CC(=O)NCCc1cccs1"
endpoint_value = 0.1957


Considering O=C(O)c1ccccc1-c1ccc(CN2CCC(CO)CC2)cn1 , its Percent Effect with Wolbachia pipientis was recorded as 112.1

Tested on Wolbachia pipientis, the item CN(C)CCOCC1CN(C(=O)c2ccccn2)Cc2ccnn2C1 (configuration not stated) showed Percent Effect equal to -6.376

Tested on Wolbachia pipientis: Cn1cc(C(=O)Nc2ccc(CN3CCOCC3)cn2)cn1 . Observed Percent Effect: -16.87

---

Tested on: Wolbachia pipientis
MEASUREMENT NOTES: Anti-Wolbachia Cell-Based Screen
Type: functional
Set-up: scale not given: in the data most compounds retested in dose-response had high values
CONDITION: 5 µM
Out of some 48,000 compounds screened, about 13,000 (27%) showed an effect of 50% or more. Some of the results follow.
Below, each entry is listed alongside its reported Percent Effect.
Reply numerically in %, unit not repeated.

[[record]]
compound = "Cc1nc(-c2ccccc2F)sc1C(=O)N1CCN(C)CC1"
property_label = "Percent Effect"
endpoint_value = 3.843


Percent Effect for Cc1nc(NC(=O)OC(C)(C)C)sc1C(=O)O is 0.0995

The compound listed as Cc1ccccc1OCCSc1nnc(CC2CCS(=O)(=O)C2)n1C (configuration not stated) shows Percent Effect equal to 3.275

Entry Cc1ccc(N2Cc3cnn(C)c3C(COCC3CC3)C2)nn1.O=C(O)C(F)(F)F.O=C(O)C(F)(F)F (configuration not stated) — recorded Percent Effect = 105.5

Noted for CCOCC1CN(c2ccc(C)nn2)Cc2cnn(CC)c21.O=C(O)C(F)(F)F.O=C(O)C(F)(F)F (configuration not stated) : its Percent Effect reads 109.7

The reported value for COCC1CN(Cc2ccc(C)o2)Cc2cnn(CC3CCOCC3)c21.O=C(O)C(F)(F)F.O=C(O)C(F)(F)F (configuration not stated) in terms of Percent Effect is 3.505

---

System: Wolbachia pipientis
MEASUREMENT NOTES: Anti-Wolbachia Cell-Based Screen
Format: functional
Parameters: scale not given: in the data most compounds retested in dose-response had high values
CONDITION: 5 µM
Hit rate of the full screen: of about 48,000 compounds, about 13,000 (27%) showed an effect of 50% or more. The list shows a part of the results.
PROPERTY LABEL: Percent Effect (%)
Report the figure in % without appending any unit label.

Here are 3 molecules together with their reported answers.
[[record]]
molecule = "Cc1ncnc2c1CCN(c1cc(C(F)(F)F)ncn1)CC2"
unit_descriptor = "%"
endpoint_value = -23.9

[[record]]
molecule = "CCc1nnc(CN(C)Cc2cccc(C(=O)Nc3ccnn3C)c2)o1"
unit_descriptor = "%"
endpoint_value = -8.218

[[record]]
molecule = "c1ccc(N2CCc3ncnc(C4CC4)c3CC2)nc1"
unit_descriptor = "%"
endpoint_value = -3.177


Short answer on Wolbachia pipientis for Cc1ccc(N2CCCC(N(C)c3ncnc4c3CCC4)C2)nn1 (stereo unspecified) , Percent Effect: 40.92

Measured Percent Effect for this entry Cc1noc(C)c1C(=O)NCC(O)c1ccc(F)cc1F (stereo unspecified) on Wolbachia pipientis: 3.33

The molecule Cc1ccc(C(=O)N2C[C@H](NS(C)(=O)=O)[C@@H](C(C)C)C2)cc1F , tested on Wolbachia pipientis, showed Percent Effect of 7.707

Item CC(CN(C)C(=O)c1cn(C)nc1-c1ccc(F)cc1F)C(=O)O (stereo unspecified) was tested on Wolbachia pipientis; the reported Percent Effect is -1.433

// molecule COCCn1ccc2ccc(NC(=O)NCc3noc(C)n3)cc21 , assay Wolbachia pipientis, Percent Effect value: -17.56

Short answer on Wolbachia pipientis for CNC(=O)C(NC(=O)c1c(C)noc1C)c1ccc(F)c(F)c1 (stereo unspecified) , Percent Effect: 1.933

Kindly note: Wolbachia pipientis, CC(C)(C)NC(=O)C1CSCN1S(=O)(=O)c1ccc(F)cc1 (stereo unspecified) , Percent Effect value reported: 5.212

The measured Percent Effect that CC(C)(C)NC(=O)C1CSCN1S(=O)(=O)c1cccc(F)c1 (stereo unspecified) showed for Wolbachia pipientis is 1.077

Values from ChEMBL document CHEMBL3988442
